test system: nuclear factor-kappa B (NF-kB)-inducing kinase (NIK) (Homo sapiens, UniProt Q99558)
Construct: made in house; host or cells: baculovirus-infected insect cells
Sequence (Q99558 whole entry): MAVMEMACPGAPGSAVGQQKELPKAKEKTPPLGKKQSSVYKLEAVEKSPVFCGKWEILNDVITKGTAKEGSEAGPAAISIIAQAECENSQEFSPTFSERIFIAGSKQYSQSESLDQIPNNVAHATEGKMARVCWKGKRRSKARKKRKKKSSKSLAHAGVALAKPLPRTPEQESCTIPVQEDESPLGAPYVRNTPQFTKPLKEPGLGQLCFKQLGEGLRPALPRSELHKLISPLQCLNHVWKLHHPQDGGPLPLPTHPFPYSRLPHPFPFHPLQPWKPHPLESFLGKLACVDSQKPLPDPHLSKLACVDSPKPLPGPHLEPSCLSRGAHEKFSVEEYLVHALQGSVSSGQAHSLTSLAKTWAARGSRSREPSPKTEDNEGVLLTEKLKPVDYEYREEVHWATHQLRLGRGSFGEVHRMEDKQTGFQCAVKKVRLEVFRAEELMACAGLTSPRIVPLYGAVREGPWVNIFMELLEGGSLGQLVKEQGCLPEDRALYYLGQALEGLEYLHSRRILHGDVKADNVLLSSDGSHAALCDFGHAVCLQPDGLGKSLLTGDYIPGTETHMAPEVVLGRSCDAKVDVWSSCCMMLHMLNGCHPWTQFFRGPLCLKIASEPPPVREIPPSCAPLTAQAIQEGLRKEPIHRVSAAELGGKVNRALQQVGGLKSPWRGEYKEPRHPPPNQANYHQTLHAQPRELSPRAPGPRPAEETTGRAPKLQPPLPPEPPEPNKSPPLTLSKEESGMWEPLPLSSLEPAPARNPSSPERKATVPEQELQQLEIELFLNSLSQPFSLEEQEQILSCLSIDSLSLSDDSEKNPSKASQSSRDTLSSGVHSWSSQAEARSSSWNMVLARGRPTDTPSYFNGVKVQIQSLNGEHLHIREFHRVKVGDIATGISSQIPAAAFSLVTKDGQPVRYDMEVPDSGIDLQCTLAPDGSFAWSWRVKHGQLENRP
measurement description: NIK enzyme inhibition assay (Transcreener ADP fluorescence polarization, NIK ADP-FP)
Type: biochemical
readout: Ki (nM)
Lab book: enter the figure in nM, no units written.

Example entries begin here.
compound: Cc1nnc([C@](C)(O)C#Cc2cccc(-c3nc(C(N)=O)c(N)cc3F)c2)o1
Ki [nM]: 9.05

compound: CN1CC[C@@](O)(C#Cc2cccc(-c3nc(C(N)=O)cc(-c4ccn(C)n4)n3)c2)C1=O
Ki [nM]: 0.53

compound: Cc1c(O)cc(-c2cccc(C#C[C@]3(O)CCN(C)C3=O)c2)nc1C(N)=O
Ki [nM]: 2.87

Query: Give the measured Ki of `CN1CC[C@@](O)(C#Cc2cccc(-c3nc(C(N)=O)cc(N4CC[C@@H](O)C4)n3)c2)C1=O` .
Response: 1.05

Query: Quick check: Ki of `CN1CC[C@@](O)(C#Cc2ccc(F)c(-c3cccc(C(N)=O)n3)c2)C1=O` ?
Response: 0.39

Query: Need Ki, item `CN1CC[C@@](O)(C#Cc2cccc(-c3nc(C(N)=O)c(N)n4ccnc34)c2)C1=O`
Response: 0.05

Query: Request the reported Ki associated with `CN1CC[C@@](O)(C#Cc2cccc(-c3ncc(NCC4(C)COC4)c(C(N)=O)n3)c2)C1=O`
Response: 0.35

Query: What value of measured Ki is listed for `Cc1ccnn1-c1cc(C(N)=O)nc(-c2cccc(C#C[C@]3(O)CCN(C)C3=O)c2)n1` ?
Response: 0.18

Query: Entry COCC1CCCN1c1cc(C(N)=O)nc(-c2cccc(C#C[C@]3(O)CCN(C)C3=O)c2)n1 (some centres unmarked) has what Ki?
Response: 2.19
